- ASSAY_PROCEDURE: chemical genetic growth profiling, strain panel (AID 1159580);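 also: tested at 20 µM; growth read once vehicle control cultures reached saturation at 30 °C; 1 = growth at the plate median or of vehicle wells; lower values mean less growth of the strain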
- ASSAY_CONTEXT: S. cerevisiae deletion strains, growth OD, locus YAL026C, strain drs2
In all, about 5,500 compounds went through this assay and about 2,000 (36%) were called active. Not shown: some 18% with an inconclusive outcome. Rule as the data show it: active = normalized growth mostly below about 0.91 (no sharp cut-off); inconclusive = no clear call, values can overlap the other calls; inactive = mostly above about 0.92. This is one part of the list.
Outcome codes: 1 (active), 0 (inactive)

[
  {
    "MOLECULE": "O=C1c2ccccc2C(=O)c2c1ccc(O)c2O",
    "CLASS_ASSIGNMENT": 1
  },
  {
    "MOLECULE": "COc1ccc2ccc(=O)oc2c1CC=C(C)C",
    "CLASS_ASSIGNMENT": 1
  },
  {
    "MOLECULE": "CC1(C)C[C@@H]2C(=O)CC[C@H]3O[C@]3(C)CC[C@H]21",
    "CLASS_ASSIGNMENT": 0
  },
  {
    "MOLECULE": "Cc1c(N(C)CS(=O)(=O)O)c(=O)n(-c2ccccc2)n1C",
    "CLASS_ASSIGNMENT": 0
  },
  {
    "MOLECULE": "O=C(O)c1cccc(O)c1O",
    "CLASS_ASSIGNMENT": 0
  },
  {
    "MOLECULE": "O=c1n(CCCN2CCN(c3cccc(Cl)c3)CC2)nc2ccccn12",
    "CLASS_ASSIGNMENT": 0
  },
  {
    "MOLECULE": "CC(=O)c1ccc2c(c1)N(CCCN(C)C)c1ccccc1S2",
    "CLASS_ASSIGNMENT": 0
  },
  {
    "MOLECULE": "CCCCC/C=C\\C/C=C\\C/C=C\\C/C=C\\CCCC(=O)O",
    "CLASS_ASSIGNMENT": 1
  },
  {
    "MOLECULE": "Cc1ncc([N+](=O)[O-])n1CCO",
    "CLASS_ASSIGNMENT": 0
  },
  {
    "MOLECULE": "CCCCC(=O)N(Cc1ccc(-c2ccccc2-c2nn[nH]n2)cc1)[C@H](C(=O)O)C(C)C",
    "CLASS_ASSIGNMENT": 0
  },
  {
    "MOLECULE": "COc1cc2ccc(=O)oc2cc1O",
    "CLASS_ASSIGNMENT": 0
  },
  {
    "MOLECULE": "O=C(/C=C/C(=O)Oc1ccccc1C(=O)O)Oc1ccccc1C(=O)O",
    "CLASS_ASSIGNMENT": 0
  },
  {
    "MOLECULE": "O=c1[nH]c2ccccc2n1CCCN1CCC(n2c(=O)[nH]c3cc(Cl)ccc32)CC1",
    "CLASS_ASSIGNMENT": 0
  },
  {
    "MOLECULE": "CC(C)=CCC1=C(O)c2ccccc2C(=O)C1=O",
    "CLASS_ASSIGNMENT": 1
  },
  {
    "MOLECULE": "CC(C)=CCOc1c2occc2cc2ccc(=O)oc12",
    "CLASS_ASSIGNMENT": 1
  },
  {
    "MOLECULE": "CN1CCN(C(c2ccccc2)c2ccccc2)CC1",
    "CLASS_ASSIGNMENT": 0
  },
  {
    "MOLECULE": "CN1CCN(CCCN2c3ccccc3Sc3ccc(Cl)cc32)CC1",
    "CLASS_ASSIGNMENT": 1
  },
  {
    "MOLECULE": "Fc1ccc(C(c2ccc(F)cc2)N2CCN(C/C=C/c3ccccc3)CC2)cc1",
    "CLASS_ASSIGNMENT": 1
  },
  {
    "MOLECULE": "CCCc1nc(C(C)(C)O)c(C(=O)OCc2oc(=O)oc2C)n1Cc1ccc(-c2ccccc2-c2nn[nH]n2)cc1",
    "CLASS_ASSIGNMENT": 0
  },
  {
    "MOLECULE": "OC[C@@H](O)C(O[C@@H]1O[C@H](CO)[C@H](O)[C@H](O)[C@H]1O)[C@H](O)[C@@H](O)CO (some centres undefined)",
    "CLASS_ASSIGNMENT": 0
  },
  {
    "MOLECULE": "O=C(CCCN1CC=C(n2c(=O)[nH]c3ccccc32)CC1)c1ccc(F)cc1",
    "CLASS_ASSIGNMENT": 0
  },
  {
    "MOLECULE": "N#Cc1ccc2c(c1)N(CCCN1CCC(O)CC1)c1ccccc1S2",
    "CLASS_ASSIGNMENT": 0
  },
  {
    "MOLECULE": "O=C1c2ccccc2C(=O)c2c(O)c(O)cc(O)c21",
    "CLASS_ASSIGNMENT": 1
  },
  {
    "MOLECULE": "O=c1[nH]cnc2nc[nH]c12",
    "CLASS_ASSIGNMENT": 0
  }
]
